Origin of the recorded values: the RNAGym collection of RNA variant scans (doi:10.1073/pnas.2313332121)

B1: TPR t1 (parent)
chain: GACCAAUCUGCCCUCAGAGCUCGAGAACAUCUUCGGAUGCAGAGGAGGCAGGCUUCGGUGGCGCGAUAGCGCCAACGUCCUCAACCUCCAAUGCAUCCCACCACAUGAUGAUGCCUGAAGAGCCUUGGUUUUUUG

Variants of: B1
Measurement protocol: polymerase ribozyme fitness, log enrichment relative to wild type (log ratio); higher = more active; in vitro selection for triplet polymerase activity
Items are presented alongside their recorded polymerase ribozyme fitness (log ratio).
Give the figure by itself; no unit, no explanation.

C20G C97A U116C C123G ... -5.78
A43G C72U U112C G122U ... -0.894
A43U G60U C82A G113A G128C ... -4.46

Task item: State the recorded polymerase ribozyme fitness (log ratio) for this entry: U9G U14A C31U G69U G117A G127C
Reply: -4.64

Task item: I am curious: what polymerase ribozyme fitness (log ratio) value has been reported for C28G C86A G120C ?
Reply: -2.11

Task item: Need polymerase ribozyme fitness (log ratio), item U54C C72U
Reply: -0.0207
